# System: Klebsiella aerogenes DSM 30053
# Measurement description: fold change of Cadaverine concentration vs plate DMSO controls (fold change (ratio)); higher = more amine produced, active = hit call of the paper (significant change in both replicates, either direction)
# Settings: incubation time: 27 h, anaerobic, 37 °C
Assay metric: fold change of Cadaverine concentration

Sample answers from the record:
Compound	Assay metric	Value measured
CC(C)(C#N)c1cc(Cn2cncn2)cc(C(C)(C)C#N)c1 [Anastrozole] (20 µM)	fold change of Cadaverine concentration	0.994 (inactive)
N[C@@H](CCC(=O)N[C@@H](CS)C(=O)NCC(=O)O)C(=O)O [Glutathione] (20 µM)	fold change of Cadaverine concentration	1.01 (inactive)
CN(C)/N=N/c1[nH]cnc1C(N)=O [Dacarbazine] (20 µM)	fold change of Cadaverine concentration	1.02 (inactive)

Kindly note the recorded fold change of Cadaverine concentration for C[C@H](N[C@@H](CCc1ccccc1)C(=O)O)C(=O)N1CCC[C@H]1C(=O)O [Enalaprilat dihydrate] (20 µM) , which is 0.991 (inactive)

###

# Test system: Escherichia coli IAI1
# Measurement description: fold change of Putrescine concentration vs plate DMSO controls (fold change (ratio)); higher = more amine produced, active = hit call of the paper (significant change in both replicates, either direction)
# Settings: incubation time: 27 h, anaerobic, 37 °C
Structures can show the parent of a compound that is named as a salt.
Assay metric: fold change of Putrescine concentration
Just the number.

Sample answers from the record:
Compound	Study target	Value measured
CC(C)CN(C[C@@H](O)[C@H](Cc1ccccc1)NC(=O)O[C@H]1CCOC1)S(=O)(=O)c1ccc(N)cc1 [Amprenavir] (20 µM)	Escherichia coli IAI1	1.14
CC(C)C(=O)OCC(=O)[C@@]12O[C@H](C3CCCCC3)O[C@@H]1C[C@H]1[C@@H]3CCC4=CC(=O)C=C[C@]4(C)[C@H]3[C@@H](O)C[C@@]12C [Ciclesonide] (20 µM)	Escherichia coli IAI1	1.11
CCOC(=O)c1ccc(N)cc1 [Benzocaine] (20 µM)	Escherichia coli IAI1	0.92
CC(C)(C)c1ccc(C(=O)CCCN2CCC(OC(c3ccccc3)c3ccccc3)CC2)cc1 [Ebastine] (20 µM)	Escherichia coli IAI1	1.02
COCC(=O)O[C@]1(CCN(C)CCCc2nc3ccccc3[nH]2)CCc2cc(F)ccc2[C@@H]1C(C)C [Mibefradil hydrochloride] (20 µM)	Escherichia coli IAI1	1.02

Field: next compound
Item NC(=O)c1cc[n+](CC2=C(C(=O)O)N3C(=O)[C@@H](NC(=O)C(c4ccccc4)S(=O)(=O)[O-])[C@H]3SC2)cc1 (stereo partly specified) [Cefsulodin Sodium Salt Hydrate] (20 µM) was tested on Escherichia coli IAI1; the reported fold change of Putrescine concentration is 1.06

###

Recorded growth for the following compounds
# Test system: Escherichia coli IAI1
# Measurement description: growth (OD595) fold change vs plate DMSO controls (fold change (ratio)); higher = more growth
# Settings: incubation time: 27 h, anaerobic, 37 °C
Structures can show the parent of a compound that is named as a salt.
Just the number.

Compound	growth
COc1ccc(C(=O)c2ccccc2O)c(O)c1 [Dioxybenzone] (20 µM)	0.791
CN1CC(O)c2cc(N=NC(N)=O)c(O)cc21 (centres undefined) [Carbazochrome] (20 µM)	1.01
NC(=O)c1cn(Cc2c(F)cccc2F)nn1 [Rufinamide] (20 µM)	0.974
CC(C)[C@H]1CC[C@H](C(=O)N[C@H](Cc2ccccc2)C(=O)O)CC1 [Nateglinide] (20 µM)	1.22
CCc1cc(C(N)=S)ccn1 [Ethionamide] (20 µM)	1.05

Item CC1(C)OC(=O)NC1=O [Dimethadione] (20 µM) was tested on Escherichia coli IAI1; the reported growth is 0.98

Item NC(=O)N/N=C/c1ccc([N+](=O)[O-])o1 [Nitrofural] (20 µM) was tested on Escherichia coli IAI1; the reported growth is 1

Item COc1ccc(CN2CCN(C(c3ccc(F)cc3)c3ccc(F)cc3)CC2)c(OC)c1OC [Lomerizine dihydrochloride] (20 µM) was tested on Escherichia coli IAI1; the reported growth is 1.08

Item CCCN(CCC)CCc1cccc2c1CC(=O)N2 [Ropinirole hydrochloride] (20 µM) was tested on Escherichia coli IAI1; the reported growth is 0.95

Provenance of the data: the supplement of paper PMC12494721
